Serum IRON % Change compared to Disease control values by entry
test system: Iron deficient Diet (IDD) induced anaemia in rats; test: Serum iron level in IDD induced anaemia in rats; format: in vivo, male Wistar rats (Rat Rattus); conditions: Day 98; IDD rats; further: test concentration or dose not given here
// note: answer is a bare numeric in %

Some molecules with recorded Serum IRON % Change compared to Disease control:
[
  {
    "molecule": "O=S(=O)([O-])[O-].[Fe+2] [FeSO4, ferrous sulphate, reference compound]",
    "resultUnit": "%",
    "reportedMeasurement": 269.2
  },
  {
    "molecule": "Nc1nc2c(ncn2[C@@H]2O[C@H](COP(=O)(O)OP(=O)(O)O)[C@@H](O)[C@H]2O)c(=O)[nH]1 [GDP, Guanosine diphosphate]",
    "resultUnit": "%",
    "reportedMeasurement": 49.7
  },
  {
    "molecule": "Nc1nc2c(ncn2[C@@H]2O[C@H](COP(=O)([O-])[O-])[C@@H](O)[C@H]2O)c(=O)[nH]1.[Na+].[Na+] [Disodiurn GMP]",
    "resultUnit": "%",
    "reportedMeasurement": 28.8
  }
]

# ---- query molecule ----
Input line: Give Serum IRON % Change compared to Disease control for the following molecule: Nc1nc2c(ncn2[C@@H]2O[C@H](COP(=O)(O)OP(=O)(O)OP(=O)(O)O)[C@@H](O)[C@H]2O)c(=O)[nH]1 [GTP, Guanosine triphosphate]
Output line: 49.2

* * *

tested on: Iron deficient Diet (IDD) induced anaemia in rats; experiment: Hematocrit % level in IDD induced anaemia in rats; format: in vivo, male Wistar rats (Rat Rattus); settings: Day 98, after 9 weeks of treatment p.o.; IDD rats; further: test concentration or dose not given here
Hematocrit Post-treatment values by entry
// note: answer is a bare numeric in %

Some compounds with recorded Hematocrit Post-treatment:
[
  {
    "compound": "Nc1nc2c(ncn2[C@@H]2O[C@H](COP(=O)(O)OP(=O)(O)O)[C@@H](O)[C@H]2O)c(=O)[nH]1 [GDP, Guanosine diphosphate]",
    "resultUnit": "%",
    "Hematocrit Post-treatment": 37.77
  },
  {
    "compound": "O=S(=O)([O-])[O-].[Fe+2] [FeSO4, ferrous sulphate, reference compound]",
    "resultUnit": "%",
    "Hematocrit Post-treatment": 47.22
  },
  {
    "compound": "Nc1nc2c(ncn2[C@@H]2O[C@H](COP(=O)([O-])[O-])[C@@H](O)[C@H]2O)c(=O)[nH]1.[Na+].[Na+] [Disodiurn GMP]",
    "resultUnit": "%",
    "Hematocrit Post-treatment": 38.89
  }
]

# ---- query compound ----
Input line: Give Hematocrit Post-treatment for the following compound: Nc1nc2c(ncn2[C@@H]2O[C@H](COP(=O)(O)OP(=O)(O)OP(=O)(O)O)[C@@H](O)[C@H]2O)c(=O)[nH]1 [GTP, Guanosine triphosphate]
Output line: 37.96
